- assay-details: Plasma pharmacokinetics, Cycle 1
- Type: in vivo, patients
- test-context: human, plasma, oral, AUCtau, present study, combination at RP2D
observable: AUC

Dear colleague, I am looking for the recorded AUC of the following compound: Nc1cc(C(F)(F)F)c(-c2cc(N3CCOCC3)nc(N3CCOCC3)n2)cn1
11700 ng·h/mL
